Hi there, I'd appreciate the recorded koff for every entry that follows.
system: T1, PD-1.His (UniProt Q15116 25-170, limits assumed)
T1 construct: not shown: His tag
T1 sequence (Q15116 25-170 limits assumed): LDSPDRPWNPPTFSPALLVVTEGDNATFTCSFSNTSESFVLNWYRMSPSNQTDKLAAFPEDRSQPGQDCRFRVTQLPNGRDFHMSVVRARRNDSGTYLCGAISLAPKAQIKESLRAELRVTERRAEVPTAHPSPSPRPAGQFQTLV
assayRemarks: SPR, antibody captured on protein A, PD-1.His in flow
Provide only the numeric value, understood in s⁻¹.

Please fill in: koff reported for NB182-z2 (Fc fusion, format not restated; not shown: IgG4 constant region of vector pCDNA3.4-IgG4) heavy: EVQLVESGGGLVQPGGSLRLSCSASGDTSFISAAGWYRQAPGKERELVSAITNTGITYYPDSVKGRFTISRDNAKNTVYLQMNSLRAEDTAVYYCNAGAPPPGGLGYDESDYWGQGTQVTVSS = 4.59e-05

Reported koff of NB182-z5 (Fc fusion, format not restated; not shown: IgG4 constant region of vector pCDNA3.4-IgG4) heavy: EVQLVESGGGLVQPGGSLRLSCSASGDTSFISAAGWYRQAPGKERELVAAITNTGITYYPDSVKGRFTISRDNSKNTVYLQMNSLRAEDTAVYYCNAGAPPPGGLGYDESDYWGQGTLVTVSS : 9.07e-05

NB194 (Fc fusion, not shown: IgG4 constant region of vector pCDNA3.4-IgG4) heavy: QVQLVETGGGLVRAGGSLRLSCTASGRPFSIYDMGWFRQAPDKERESVAVINLSRGDTYYADSVKGRFTISLDSAKNTVYLQMNSLKPEDTAVYSCGVDRRQYGLGIPPLADHWGQGTQVTVSS has a reported koff of 0.000105
